Molecular target: MBP-TAp63αFTL (Mus musculus)
Sequence: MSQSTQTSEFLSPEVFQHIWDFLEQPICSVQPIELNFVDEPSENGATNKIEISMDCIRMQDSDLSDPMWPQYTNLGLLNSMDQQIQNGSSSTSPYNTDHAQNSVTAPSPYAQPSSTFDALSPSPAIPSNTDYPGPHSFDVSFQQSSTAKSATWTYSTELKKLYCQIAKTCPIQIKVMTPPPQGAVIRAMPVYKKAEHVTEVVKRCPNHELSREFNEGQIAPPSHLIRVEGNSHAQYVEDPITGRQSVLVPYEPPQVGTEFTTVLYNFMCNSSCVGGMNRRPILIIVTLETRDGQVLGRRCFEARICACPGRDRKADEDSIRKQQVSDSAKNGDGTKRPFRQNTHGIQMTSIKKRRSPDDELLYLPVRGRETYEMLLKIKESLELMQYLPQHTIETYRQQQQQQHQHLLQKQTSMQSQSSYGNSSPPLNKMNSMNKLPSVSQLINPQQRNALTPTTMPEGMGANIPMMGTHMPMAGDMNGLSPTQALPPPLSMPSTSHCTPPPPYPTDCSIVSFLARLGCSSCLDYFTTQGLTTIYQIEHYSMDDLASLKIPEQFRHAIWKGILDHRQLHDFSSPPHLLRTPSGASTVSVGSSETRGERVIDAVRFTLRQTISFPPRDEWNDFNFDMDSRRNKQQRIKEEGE
Assay: fluorescence anisotropy
Details: two-site fit, first site, monomer concentration; 10 mM potassium phosphate pH 7.6, 200 mM NaCl, room temperature, 30 min; 15 nM p21 DNA (300 nM for controls), protein 0.1-15 µM monomer
PARAMETER: Kd (nM)

1. GGCAGGAACATGTCCCAACATGTTGAGCCG (double strand) [p21 promoter response element] :: 380

Data origin, for the record: paper PMC3087504
